pKi: −log10 of the molar value.
Listed below are compounds with pKi for Muscarinic acetylcholine receptor M3 (Homo sapiens), each taken from published literature.
Returns true (1) if the recorded pKi is greater than or equal to 7, and false (0) otherwise.

COc1ccc([C@H](Cc2c(Cl)c[n+]([O-])cc2Cl)OC(=O)c2ccc(CNC(C(=O)OC3CCN(C)CC3)c3ccccc3)s2)cc1OC (stereo in doubt; 91e) :: true (1)
O=C(Nc1ccccc1-c1ccccc1)OC1CCN(CCCNC[C@H](O)c2ccc(O)c3[nH]c(=O)ccc23)CC1 :: true (1)
O=C(CCN1CCCc2ccccc21)Nc1cccnn1 :: false (0)
COc1cc(N(C)C(=O)CCN2CCC(OC(=O)Nc3ccccc3-c3ccccc3)CC2)ccc1CNC[C@H](O)c1ccc(O)c2[nH]c(=O)ccc12 :: true (1)
COc1nsnc1OCCCOCCCOCCCOc1nsnc1C1=CCCN(C)C1 :: false (0)
CN(CCCc1cccc(F)c1)[C@H]1C2C3CC4C2C(=O)C2C4C3C21 (some centres undefined) :: false (0)
O=C(CN1CCc2ccc(Br)cc21)N1CCCCC1 :: false (0)
O=C(CCNC(=O)CNC(=O)CC(c1ccccc1)(c1ccccc1)c1ccccc1)NC[C@H]1CCCN(CC2CCCCC2)C1 :: true (1)

Evaluate `O=C(Nc1ccccc1-c1ccccc1)OC1CCN(CCCCCCCNC[C@H](O)c2ccc(O)c3[nH]c(=O)ccc23)CC1` : pKi at minimum 7?
true (1)
